Values were extracted from ChEMBL document CHEMBL5104187.

molecular target: Androgen receptor (Homo sapiens, UniProt P10275); experiment: Antagonist activity at androgen receptor (unknown origin) in human LNCap-ARR2PB-eGFP cells by measuring fluorescence intensity measured after 3 days by transcriptional assay
Sequence (P10275 whole entry): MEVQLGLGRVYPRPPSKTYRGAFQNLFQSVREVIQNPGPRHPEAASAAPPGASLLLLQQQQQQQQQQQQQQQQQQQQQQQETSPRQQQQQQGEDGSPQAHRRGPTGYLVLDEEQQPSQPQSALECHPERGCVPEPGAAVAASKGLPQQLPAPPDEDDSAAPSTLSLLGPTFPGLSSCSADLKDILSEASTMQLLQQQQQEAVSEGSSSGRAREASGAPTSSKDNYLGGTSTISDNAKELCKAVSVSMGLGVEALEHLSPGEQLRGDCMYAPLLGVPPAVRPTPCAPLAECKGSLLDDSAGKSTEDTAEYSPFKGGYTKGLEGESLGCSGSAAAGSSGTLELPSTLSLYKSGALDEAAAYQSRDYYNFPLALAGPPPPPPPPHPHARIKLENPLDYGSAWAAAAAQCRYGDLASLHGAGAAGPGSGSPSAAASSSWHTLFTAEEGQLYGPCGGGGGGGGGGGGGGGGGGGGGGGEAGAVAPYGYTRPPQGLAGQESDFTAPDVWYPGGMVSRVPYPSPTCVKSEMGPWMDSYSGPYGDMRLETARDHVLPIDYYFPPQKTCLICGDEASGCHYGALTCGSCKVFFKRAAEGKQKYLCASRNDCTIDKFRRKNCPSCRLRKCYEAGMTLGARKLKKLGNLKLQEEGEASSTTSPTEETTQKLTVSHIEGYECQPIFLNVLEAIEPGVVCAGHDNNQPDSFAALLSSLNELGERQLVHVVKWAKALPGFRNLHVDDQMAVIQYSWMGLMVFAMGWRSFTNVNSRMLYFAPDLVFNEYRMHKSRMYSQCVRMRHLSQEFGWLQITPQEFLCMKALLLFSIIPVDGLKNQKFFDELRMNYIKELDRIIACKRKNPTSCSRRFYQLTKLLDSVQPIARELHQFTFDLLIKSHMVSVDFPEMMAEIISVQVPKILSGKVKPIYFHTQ
ATTRIBUTE_MEASURED: IC50 (µM)
Please state the figure in µM; there is no need to write the unit.

* N#Cc1ccc(-n2ccc(CNC(=O)c3ccc(F)nc3)n2)cc1C(F)(F)F | 0.78
* Cc1cn(-c2ccc(C#N)c(C(F)(F)F)c2)nc1CNC(=O)c1ccc([N+](=O)[O-])cc1 | 0.45
* N#Cc1ccc(-n2ccc(CC(=O)Nc3ccc(F)cn3)n2)cc1C(F)(F)F | 0.34
* Cc1cn(-c2ccc(C#N)c(C(F)(F)F)c2)nc1CNC(=O)c1ccc(C#N)cc1 | 14.9
* Cc1ccc(NC(=O)Cc2ccn(-c3ccc(C#N)c(C(F)(F)F)c3)n2)cc1 | 4.53
* Cc1cn(-c2ccc(C#N)c(C(F)(F)F)c2)nc1CNC(=O)c1ccc(F)cc1 | 0.22
* N#Cc1ccc(-n2ccc(CNC(=O)c3ccc(F)cc3)n2)cc1C(F)(F)F | 0.76

Lookup: # query: IC50 | item O=C(Cc1ccn(-c2ccc([N+](=O)[O-])c(C(F)(F)F)c2)n1)Nc1ccc(F)cn1 | system: Androgen receptor (Homo sapiens, UniProt P10275)
Found: 2.57
